target: HLA-A*03:01; experiment: IEDB peptide-MHC binding, purified MHC/direct/fluorescence; filed as Kd, often an IC50 or EC50 that approximates it; bounds were set here for any values at or beyond the usual limits of such assays; details: source organism: Enterobacteria phage f1

- polymerSequence: "TFMYVFSTF"
  Kd: "≥ 20 µM"

----------
target: HLA-A*68:02; test: IEDB peptide-MHC binding, purified MHC/direct/fluorescence; filed as Kd, often an IC50 or EC50 that approximates it; bounds were set here for any values at or beyond the usual limits of such assays; conditions: source organism: Coxiella burnetii

- polymerSequence: "VFFKQWFEK"
  Kd: "≥ 20 µM"

Sourced from the Immune Epitope Database (IEDB)
